Value source: patent US4565813A

- protocol: Acute toxicity (Litchfield-Wilcoxon method)
- measurementContext: mouse, in vivo, iv; tail vein, 6-weeks-old male ddY mice
measuredMetric: LD50

May I ask what LD50 has been recorded for `CC1=C(c2ccncc2)SCC(=O)N1` ?
165 to 200 mg/kg
